# Lookup of reported pIC50 keyed by entry
Target: pseudo-kinase domain (JH2, amino-acids 536-812 with 3 surface mutations W659A, W777A, F794H) of human V617F mutant JAK2 (Homo sapiens, UniProt O60674, F794H/V617F/W659A/W777A)
Construct: pseudo-kinase domain (JH2, amino-acids 536-812 with 3 surface mutations W659A, W777A, F794H); His (C); Avi (biotinylated) (C)
Sequence (O60674 536-812 V617F/W659A/W777A/F794H): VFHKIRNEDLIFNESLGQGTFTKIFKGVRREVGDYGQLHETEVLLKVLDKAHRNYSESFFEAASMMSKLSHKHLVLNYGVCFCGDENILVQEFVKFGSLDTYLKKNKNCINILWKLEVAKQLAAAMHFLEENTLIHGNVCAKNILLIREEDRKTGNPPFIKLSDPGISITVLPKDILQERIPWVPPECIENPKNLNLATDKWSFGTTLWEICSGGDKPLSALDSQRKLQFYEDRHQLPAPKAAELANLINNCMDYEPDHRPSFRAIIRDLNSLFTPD
Assay: JAK2 LanthaScreen JH2-V617F Binding Assay
Details: JAK2 JH2-V617F (0.26 nM), 50 nM Fluorescent JAK2-JH2 Tracer, 1 hour at 25° C.; read-out: JH2 BIND V617F
Procedure: Example C. JAK2 LanthaScreen JH2-V617F Binding Assay JAK2 JH2-V617F binding assay utilizes pseudo-kinase domain (JH2, amino-acids 536-812 with 3 surface mutations W659A, W777A, F794H) of human V617F mutant JAK2 expressed as C-terminal His-Avi-tagged, biotinylated protein in a baculovirus expression system (BPS Bioscience, Catalog #79498). […] After incubation for 1 hour at 25° C., LanthaScreen signals were read on a PHERAstar FS plate reader (BMG LABTECH). […]
pIC50: −log10 of the molar value.

Completed entries (count: 6):
compound	pIC50
COC1CC=C(c2c(-c3ccc(CN4CCC(S(C)(=O)=O)CC4)cc3)[nH]c3ncc4c(c23)n(C(C)(C)C)c(=O)n4C)CC1 (stereo not shown)	≥ 8.00
Cn1ncc2cc(-c3c(-c4ccc(Oc5cccnc5)nc4)[nH]c4ncc5c(c34)n(C3CCCC3)c(=O)n5C)ccc21	7.00 to 8.00
Cn1c(=O)n(C)c2c3c(C4CC4)c(-c4ccc(CN5CCC(S(C)(=O)=O)CC5)cc4)[nH]c3ncc21	< 6.00
Cn1c(=O)n(-c2ccccc2)c2c3cc(-c4ccc(CN5CCC(S(C)(=O)=O)CC5)c(F)c4)[nH]c3ncc21	6.30 to 7.00
Cn1ncc2cc(-c3c(-c4cnn5cccnc45)[nH]c4ncc5c(c34)n(C3CCOCC3)c(=O)n5C)ccc21	≥ 8.00
CC(C)n1c(=O)n(C)c2cnc3[nH]c(-c4cnn(CC(C)(C)O)c4)c(-c4cc5cnc(N6CCNCC6)cc5s4)c3c21	≥ 8.00

Now, please, on to the next compound.
Exercise: # return recorded pIC50 for entry CC(C)n1c(=O)n(C)c2cnc3[nH]c(-c4cnn(CC(C)(C)O)c4)c(C45CCNCC4C5)c3c21 (stereo not shown)
Key: 7.00 to 8.00

---

Molecular target: pseudo-kinase domain (JH2, amino-acids 536-812 with 3 surface mutations W659A, W777A, F794H) of human V617F mutant JAK2 (Homo sapiens, UniProt O60674, F794H/V617F/W659A/W777A)
Construct: pseudo-kinase domain (JH2, amino-acids 536-812 with 3 surface mutations W659A, W777A, F794H); His (C); Avi (biotinylated) (C); purchased BPS Bioscience 79498; host or cells: baculovirus expression system
Test: JAK2 LanthaScreen JH2-V617F Binding Assay
Details: JAK2 JH2-V617F (0.26 nM), 50 nM Fluorescent JAK2-JH2 Tracer, 1 hour at 25° C.; read-out: JH2 BIND V617F
pIC50: −log10 of the molar value.
# Lookup of reported pIC50 keyed by entry

Completed entries (count: 4):
compound	pIC50
CC(C)n1c(=O)n(C)c2cnc3[nH]c(-c4cnn(CC(C)(C)O)c4)c(-c4cc5c(s4)CCN(S(C)(=O)=O)C5)c3c21 [Example 83]	7.00 to 8.00
Cn1cc(-c2[nH]c3ncc4c(c3c2-c2ccc3c(cnn3C)c2)n([C@H]2CC[C@@H](CC#N)CC2)c(=O)n4C)cn1 [Example 102]	≥ 8.00
Cn1ncc2cc(-c3c(-c4ccc(CN5CCC(S(C)(=O)=O)CC5)cc4)[nH]c4ncc5c(c34)n(C3CCCC3)c(=O)n5C)ccc21 [Example 52]	≥ 8.00
COc1ccc(-c2c(-c3ccc(CN4CCC(S(C)(=O)=O)CC4)cc3)[nH]c3ncc4c(c23)n(C)c(=O)n4C)cn1 [Example 35]	6.30 to 7.00

Exercise: # return recorded pIC50 for entry Cn1c(=O)n([C@H]2CCCOC2)c2c3c(-c4ccccc4)c(-c4ccc(CN5CCC(S(C)(=O)=O)CC5)cc4)[nH]c3ncc21 [Example 58]
Key: 7.00 to 8.00

Exercise: # return recorded pIC50 for entry COc1nn(C)cc1-c1[nH]c2ncc3c(c2c1-c1ccc2c(cnn2C)c1)n(C1CCOCC1)c(=O)n3C [Example 91]
Key: ≥ 8.00

Exercise: # return recorded pIC50 for entry Cn1c(=O)n(-c2ccccc2)c2c3cc(-c4cnn(C5CCS(=O)(=O)C5)c4)[nH]c3ncc21 (stereo not shown) [Example 6]
Key: 6.30 to 7.00

---

Target: pseudo-kinase domain (JH2, amino-acids 536-812 with 3 surface mutations W659A, W777A, F794H) of human V617F mutant JAK2 (Homo sapiens, UniProt O60674, F794H/V617F/W659A/W777A)
Construct: pseudo-kinase domain (JH2, amino-acids 536-812 with 3 surface mutations W659A, W777A, F794H); His (C); Avi (biotinylated) (C)
Assay: JAK2 LanthaScreen JH2-V617F Binding Assay
Conditions: JAK2 JH2-V617F (0.26 nM), 50 nM Fluorescent JAK2-JH2 Tracer, 1 hour at 25° C.; read-out: JH2 BIND V617F
# Lookup of reported IC50 keyed by entry

compound	IC50
Cn1ncc2cc(-c3c(C4CC4C#N)[nH]c4ncc5c(c34)n(C3CCCC3)c(=O)n5C)ccc21 (centres unmarked)	10 to 100 nM
CC(C)C(=O)c1[nH]c2ncc3c(c2c1-c1ccccc1)n(C)c(=O)n3C	> 1000 nM
Cn1c(=O)n(C)c2c3c(-c4ccccc4)c(C4CCNCC4)[nH]c3ncc21	> 1000 nM
CC(C)n1c(=O)n(C)c2cnc3[nH]c(-c4cnn(CC(C)(C)O)c4)c(-c4ccc(COC5CCOCC5)cc4)c3c21	≤ 10 nM
Cn1cc(-c2[nH]c3ncc4c(c3c2-c2ccc3c(cnn3C)c2)n(C2CCOCC2)c(=O)n4C)cn1	≤ 10 nM

Exercise: # return recorded IC50 for entry Cn1ncc2cc(-c3c(-c4cnn5c4CCC5)[nH]c4ncc5c(c34)n(C3CCOCC3)c(=O)n5C)ccc21
Key: ≤ 10 nM

Exercise: # return recorded IC50 for entry CC(C)n1c(=O)n(C)c2cnc3[nH]c(-c4cnn(C)c4)c(C4CCN(C(=O)Cc5ccc(S(C)(=O)=O)cc5)CC4)c3c21
Key: 10 to 100 nM

Exercise: # return recorded IC50 for entry COc1ccc(-c2[nH]c3ncc4c(c3c2-c2ccc3c(cnn3C)c2)n(C(C)C)c(=O)n4C)cn1
Key: 10 to 100 nM

---

Molecular target: pseudo-kinase domain (JH2, amino-acids 536-812 with 3 surface mutations W659A, W777A, F794H) of human Wild Type JAK2 (Homo sapiens, UniProt O60674, F794H/W659A/W777A)
Construct: pseudo-kinase domain (JH2, amino-acids 536-812 with 3 surface mutations W659A, W777A, F794H); His (C); Avi (biotinylated) (C)
Sequence (O60674 536-812 W659A/W777A/F794H): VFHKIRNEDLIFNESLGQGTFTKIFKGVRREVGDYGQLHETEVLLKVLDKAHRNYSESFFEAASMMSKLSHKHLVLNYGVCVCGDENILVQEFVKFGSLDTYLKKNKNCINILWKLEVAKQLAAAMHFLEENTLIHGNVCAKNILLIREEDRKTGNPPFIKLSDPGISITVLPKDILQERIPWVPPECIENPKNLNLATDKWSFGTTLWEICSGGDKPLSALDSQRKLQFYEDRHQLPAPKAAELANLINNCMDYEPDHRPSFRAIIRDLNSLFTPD
Assay: JAK2 LanthaScreen JH2-WT Binding Assay
Details: JAK2 JH2-WT (0.145 nM), 50 nM Fluorescent JAK2-JH2 Tracer, 1 hour at 25° C.; read-out: JH2 BIND WT
# Lookup of reported IC50 keyed by entry

molecule	IC50
[2H]C([2H])([2H])n1ncc2cc(-c3c(-c4cn(C)nc4OC)[nH]c4ncc5c(c34)n(C3CCOCC3)c(=O)n5C)ccc21	≤ 0.01 µM
COCC(=O)NC1CCC(n2c(=O)n(C)c3cnc4[nH]c(-c5cnn(CC(C)(C)O)c5)c(-c5ccc6c(cnn6C)c5)c4c32)CC1 (stereo not drawn)	≤ 0.01 µM

Exercise: # return recorded IC50 for entry Cn1c(=O)n(C(C)(C)C)c2c3cc(-c4ccc(CN5CCC(S(C)(=O)=O)CC5)cc4)[nH]c3ncc21
Key: 0.01 to 0.1 µM

---

Biological target: pseudo-kinase domain (JH2, amino-acids 536-812 with 3 surface mutations W659A, W777A, F794H) of human V617F mutant JAK2 (Homo sapiens, UniProt O60674, F794H/V617F/W659A/W777A)
Construct: pseudo-kinase domain (JH2, amino-acids 536-812 with 3 surface mutations W659A, W777A, F794H); His (C); Avi (biotinylated) (C)
Assay: JAK2 LanthaScreen JH2-V617F Binding Assay
Conditions: JAK2 JH2-V617F (0.26 nM), 50 nM Fluorescent JAK2-JH2 Tracer, 1 hour at 25° C.; read-out: JH2 BIND V617F
pIC50: −log10 of the molar value.
property-label: pIC50

Completed entries (count: 5):
compound	obs-value
Cn1c(=O)n(C)c2c3c(-c4ccccc4)c(CCO)[nH]c3ncc21 [Example 42]	< 6.00
CS(=O)(=O)C1CCN(Cc2ccc(-c3cc4c(ncc5c4n(-c4ccccc4)c(=O)n5CCO)[nH]3)cc2)CC1 [Example 5]	< 6.00
Cn1ncc2cc(-c3c(-c4ccncc4)[nH]c4ncc5c(c34)n(C3CCCC3)c(=O)n5C)ccc21 [Example 60]	≥ 8.00
CC(C)n1c(=O)n(C)c2cnc3[nH]c(-c4cnn(C)c4)c(C#Cc4ccccc4)c3c21 [Example 100]	6.30 to 7.00
Cn1ncc2cc(-c3c(-c4cnn(CC(C)(C)O)c4)[nH]c4ncc5c(c34)n(C3CCCC3)c(=O)n5C)ccc21 [Example 47]	≥ 8.00

Exercise: # return recorded pIC50 for entry COc1ccc(-c2c(-c3ccc(CN4CCC(S(C)(=O)=O)CC4)cc3)[nH]c3ncc4c([nH]c(=O)n4C)c23)cc1 [Example 23]
Key: 6.30 to 7.00

Exercise: # return recorded pIC50 for entry Cn1ncc2cc(-c3c(C4CC4)[nH]c4ncc5c(c34)n(C3CCCC3)c(=O)n5C)ccc21 [Example 68]
Key: ≥ 8.00

Exercise: # return recorded pIC50 for entry COc1ccc(-c2c(-c3cnn(Cc4ccncc4)c3)[nH]c3ncc4c(c23)n(C2CCCC2)c(=O)n4C)cc1 [Example 59]
Key: ≥ 8.00

Exercise: # return recorded pIC50 for entry COc1ccc(-c2c(-c3ccc(CN4CCC(S(C)(=O)=O)CC4)cc3)[nH]c3ncc4c(c23)n(C2CCC2)c(=O)n4C)cc1 [Example 21]
Key: ≥ 8.00

Exercise: # return recorded pIC50 for entry COc1ccc(-c2c(-c3ccc(CN4CCC(S(C)(=O)=O)CC4)cc3)[nH]c3ncc4c(c23)n(-c2ccccc2)c(=O)n4C)cc1 [Example 22]
Key: 7.00 to 8.00

Exercise: # return recorded pIC50 for entry Cn1ncc2cc(-c3c(-c4cnn(CC(C)(C)O)c4)[nH]c4ncc5c(c34)n([C@H]3CC[C@@H](CC#N)CC3)c(=O)n5C)ccc21 [Example 103]
Key: ≥ 8.00

Exercise: # return recorded pIC50 for entry CS(=O)(=O)C1CCN(Cc2ccc(-c3cc4c(ncc5[nH]c(=O)n(-c6ccccc6)c54)[nH]3)cc2)CC1 [Example 4]
Key: 6.30 to 7.00

Exercise: # return recorded pIC50 for entry Cn1cc(-c2[nH]c3ncc4c(c3c2-c2ccc3c(cnn3C)c2)n(C2CCN(C3(CC#N)CCC3)CC2)c(=O)n4C)cn1 [Example 111]
Key: ≥ 8.00

Exercise: # return recorded pIC50 for entry CN(CCCS(C)(=O)=O)Cc1ccc(-c2cc3c(ncc4c3n(-c3ccccc3)c(=O)n4C)[nH]2)cc1 [Example 7]
Key: 6.30 to 7.00
